# method: in vivo
# assay.setup: rat, plasma, 20 mg/kg
readout.kind: AUC (ng·h/mL)
State the answer as a number, implicitly in ng·h/mL.

I am curious: what AUC value has been reported for O=C1c2cccc3cccc(c23)C(=O)N1CCNCCCNCCN1C(=O)c2cccc3cccc(c23)C1=O [Free Elinafide, Elinafide] ?
4.7

* * *

# method: in vivo
# assay.setup: rat, plasma, 20 mg/kg
readout.kind: Vd
Enter a number only.

State the recorded Vd for this entry: O=C1c2cccc3cccc(c23)C(=O)N1CCNCCCNCCN1C(=O)c2cccc3cccc(c23)C1=O [Free Elinafide, Elinafide]
204000

* * *

# method: in vivo
# assay.setup: rat, plasma, 20 mg/kg
readout.kind: half-life (h)
Just the number in h, nothing appended.

Consider the compound O=C1c2cccc3cccc(c23)C(=O)N1CCNCCCNCCN1C(=O)c2cccc3cccc(c23)C1=O [Free Elinafide, Elinafide] and give its measured half-life.
53.5
